Values from patent US20220002279A1

- Target: Pseudomonas aeruginosa LpxC enzyme (Pseudomonas aeruginosa, UniProt P47205)
- Sequence (P47205 whole entry): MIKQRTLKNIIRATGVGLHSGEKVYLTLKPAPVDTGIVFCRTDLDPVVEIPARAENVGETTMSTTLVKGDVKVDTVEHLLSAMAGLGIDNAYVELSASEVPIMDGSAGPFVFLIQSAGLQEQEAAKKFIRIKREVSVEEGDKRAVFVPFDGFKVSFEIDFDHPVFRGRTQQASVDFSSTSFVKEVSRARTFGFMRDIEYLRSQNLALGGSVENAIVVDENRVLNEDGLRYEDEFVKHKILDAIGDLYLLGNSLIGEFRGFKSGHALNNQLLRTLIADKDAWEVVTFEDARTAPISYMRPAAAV
- Run Description: Inhibitory activity on Pseudomonas aeruginosa LpxC enzyme (fluorescamine method)
- Condition Details: fluorescamine detection; 3.6 nmol/L enzyme, 20 μmol/L substrate, pH 8.0, 60 min
Reported Metric: pIC50
Answers are plain numbers, as −log10 of the molar value.

>>> value_measured("Cc1cc(C#CCCCO)ccc1-c1cc(Cn2ccnc2[C@H](C)O)no1 [Compound 5]")
6.88
>>> value_measured("C[C@H](O)c1nccn1Cc1cc(-c2ccc(C#CC3CC3CN)cc2)on1 (stereo in doubt) [Compound 8]")
7.52
>>> value_measured("C[C@H](O)c1nccn1Cc1cc(-c2c(F)cc(C#CCCCO)cc2F)on1 [Compound 14]")
7.81
>>> value_measured("C[C@H](O)c1nccn1Cc1cc(-c2ccc(C#C[C@H]3C[C@@H]3[C@@H](O)CN)cc2)on1 [Compound 15]")
8.08

Please supply pIC50 for each of the following items, keeping them in order.
1. C[C@H](O)c1nccn1[C@H](CO)c1cc(-c2ccc(C#CCCCO)cc2)on1 [Compound 16]
2. C[C@H](O)c1nccn1Cc1cc(-c2ccc(C#CC3CC3N)cc2)on1 (stereo in doubt) [Compound 9]
3. C[C@H](O)c1nccn1Cc1cc(-c2ccc(C#C[C@@H]3[C@H]4CN(C[C@H](O)CO)C[C@@H]34)cc2)on1 [Compound 11]
4. C[C@H](O)c1nccn1Cc1cc(-c2ccc(C#CC3CN(C)C3)cc2)on1 [Compound 12]
5. C[C@H](O)c1nccn1Cc1cc(-c2ccc(C#CCCO)cc2)on1 [Compound 6]
6. C[C@H](O)c1nccn1Cc1cc(-c2ccc(C#C[C@@H]3[C@H]4CN(CCO)C[C@@H]34)cc2)on1 [Compound 19]
7. C[C@H](O)c1nccn1Cc1cc(-c2ccc(C#CCCCO)cc2)on1 [Compound 1]

[8.59, 7.65, 8.42, 7.34, 7.65, 8.69, 7.88]

Parameter requested: pIC50. Apply to each item below.
1. C[C@H](O)c1nccn1Cc1cc(-c2ccc(C#C[C@@H]3[C@H]4CNC[C@@H]34)cc2)on1 [Compound 10]
2. C[C@H](O)c1nccn1Cc1cc(-c2ccc(C#CC34CC(N)(C3)C4)cc2)on1 [Compound 17]
3. C[C@H](O)c1nccn1Cc1cc(-c2ccc(C#CC3CC3CO)cc2)on1 (stereo in doubt) [Compound 7]
4. C[C@H](O)c1nccn1Cc1cc(-c2ccc(C#CCCCO)cc2F)on1 [Compound 3]
5. C[C@H](O)c1nccn1Cc1cc(-c2ccc(C#CC3CN(C[C@H](O)CO)C3)cc2)on1 [Compound 13]

1. 7.84
2. 7.86
3. 8.35
4. 8.36
5. 7.66

----------
- Target: Escherichia coli LpxC enzyme (Escherichia coli)
- Construct: made in house; host or cells: Escherichia coli
- Sequence (P0A725 1-305): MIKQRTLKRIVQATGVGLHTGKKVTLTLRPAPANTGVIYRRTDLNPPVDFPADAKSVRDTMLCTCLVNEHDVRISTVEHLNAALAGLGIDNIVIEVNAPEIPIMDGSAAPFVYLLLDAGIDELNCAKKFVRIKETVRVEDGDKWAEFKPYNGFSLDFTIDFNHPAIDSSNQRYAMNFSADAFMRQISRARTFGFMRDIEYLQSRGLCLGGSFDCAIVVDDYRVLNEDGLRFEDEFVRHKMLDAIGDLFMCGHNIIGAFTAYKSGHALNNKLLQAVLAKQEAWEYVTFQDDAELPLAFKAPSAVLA
- Run Description: Inhibitory activity on Escherichia coli LpxC enzyme (LCMS method)
- Format: biochemical
Field: pIC50. Provide a value for each of the compounds that follow.
One number for each entry, as −log10 of the molar value.

>>> value_measured("C[C@H](O)c1nccn1[C@H](CN)c1cc(-c2ccc(C#CCCCO)cc2)on1 [Compound 18]")
7.16

# get_value(readout= pIC50, system= Escherichia coli LpxC enzyme (Escherichia coli)) for Cc1cnc([C@H](C)O)n1Cc1cc(-c2ccc(C#CC3(N)CC3)cc2)on1 [Compound 64]
6.75

----------
- Target: Escherichia coli LpxC enzyme (Escherichia coli, UniProt P0A725)
- Construct: made in house; host or cells: Escherichia coli
- Run Description: Inhibitory activity on Escherichia coli LpxC enzyme (fluorescamine method)
- Assay type: biochemical
One threshold, 80 nM, splits the recorded IC50 values: lower ones are YES, equal or higher ones are NO.

Consider the worked cases shown below.
>>> qualitative_label("C[C@H](O)c1nccn1Cc1cc(-c2ccc(C#C[C@H]3C[C@H](NC=O)C3)cc2)on1")
"NO"
>>> qualitative_label("C[C@H](O)c1nccn1Cc1cc(-c2ccc(C#C[C@@H]3[C@H]4CN(C5COC5)C[C@@H]34)cc2)on1")
"YES"
>>> qualitative_label("COCC1CC1C#Cc1ccc(-c2cc(Cn3ccnc3[C@H](C)O)no2)cc1 (stereo in doubt)")
"YES"

Report whether reported IC50 is lower than 80 nM (strictly) for COC(=O)N1C[C@@H]2[C@@H](C#Cc3ccc(-c4cc(Cn5ccnc5[C@H](C)O)no4)cc3)[C@@H]2C1
YES

Hello, I'm reviewing records and need to know if IC50 of C[C@H](O)c1nccn1Cc1cc(-c2ccc(C#CC3CC3)cc2)on1 is below 80 nM. Could you check?
YES

Input CNC1(C#Cc2ccc(-c3cc(Cn4ccnc4[C@H](C)O)no3)cc2)CC1 ; condition: IC50 strictly below 80 nM. Does it hold?
NO

Please let me know if C[C@H](O)c1nccn1Cc1cc(-c2ccc(C#CC3C(CO)C3CO)cc2)on1 (some centres unmarked) shows IC50 below 80 nM.
NO

----------
I'd be grateful if you could share measured log10 of IC50 for these entries.
- Target: Escherichia coli LpxC enzyme (Escherichia coli)
- Construct: made in house; host or cells: Escherichia coli
- Run Description: Inhibitory activity on Escherichia coli LpxC enzyme (fluorescamine method)
- Type: biochemical
- Condition Details: fluorescamine detection; 3.1 nmol/L enzyme, 20 μmol/L substrate, pH 6.5, 120 min; read-out: IC50 (inhibitory activity on Escherichia coli LpxC enzyme, Fluoresamine method)
Heads up, the numbers here are log10 of IC50 in µM units.

Worked set:
>>> value_measured("COCCC#Cc1ccc(-c2cc(Cn3ccnc3[C@H](C)O)no2)cc1")
-1.41
>>> value_measured("C[C@H](O)c1nccn1Cc1cc(-c2ccc(C#CC3CCS(=O)(=O)C3)cc2)on1 (stereo partly shown)")
-0.58
>>> value_measured("COCCN1CC(C)(C#Cc2ccc(-c3cc(Cn4ccnc4[C@H](C)O)no3)cc2)C1")
-0.64
>>> value_measured("C[C@H](O)c1nccn1Cc1cc(-c2ccc(C#CCCCO)cc2F)on1")
-1.79
>>> value_measured("C[C@H](O)c1nccn1Cc1cc(-c2ccc(C#C[C@@H]3[C@H]4CN(C(=O)CCC(=O)O)C[C@@H]34)cc2)on1")
-0.87
>>> value_measured("C[C@H](O)c1nccn1Cc1cc(-c2ccc(C#C[C@@H]3[C@H]4CN(S(C)(=O)=O)C[C@@H]34)cc2)on1")
-0.95

Lab note: next molecule to report on.
Query: log10 of IC50; subject: C[C@H](O)c1nccn1Cc1cc(-c2ccc(C#C[C@@H]3[C@H]4CN(C)C[C@@H]34)cc2)on1
-1.01

----------
- Target: Pseudomonas aeruginosa LpxC enzyme (Pseudomonas aeruginosa)
- Run Description: Inhibitory activity on Pseudomonas aeruginosa LpxC enzyme (fluorescamine method)
- Condition Details: fluorescamine detection; 3.6 nmol/L enzyme, 20 μmol/L substrate, pH 8.0, 60 min
Reported Metric: IC50 (nM)
Numbers only, in nM.

Worked cases, answers included:
>>> value_measured("C[C@H](O)c1nccn1Cc1cc(-c2ccc(C#CC3(N)CC3)cc2)on1 [Compound 4]")
16.7
>>> value_measured("C[C@H](O)c1nccn1Cc1cc(-c2ccc(C#CCCCO)c(F)c2)on1 [Compound 2]")
6.92

# input for lookup
Look up IC50: C[C@H](O)c1nccn1[C@H](CN)c1cc(-c2ccc(C#CCCCO)cc2)on1 [Compound 18]
6.04

----------
- Target: Escherichia coli LpxC enzyme (Escherichia coli, UniProt P0A725)
- Construct: made in house; host or cells: Escherichia coli
- Run Description: Inhibitory activity on Escherichia coli LpxC enzyme (fluorescamine method)
- Assay type: biochemical
- Condition Details: fluorescamine detection; 3.1 nmol/L enzyme, 20 μmol/L substrate, pH 6.5, 120 min; read-out: IC50 (inhibitory activity on Escherichia coli LpxC enzyme, Fluoresamine method)
Reported Metric: log10(IC50) (log10 of the value in µM)
// stored as log10 of IC50 expressed in µM

Take a look at these entries with their results.
>>> value_measured("COCC(=O)N1C[C@@H]2[C@@H](C#Cc3ccc(-c4cc(Cn5ccnc5[C@H](C)O)no4)cc3)[C@@H]2C1")
-1.42
>>> value_measured("C[C@H](O)c1nccn1Cc1cc(-c2ccc(C#CC3CCOCC3)cc2)on1")
-1.48
>>> value_measured("C[C@H](O)c1nccn1Cc1cc(-c2ccc(C#C[C@@H]3[C@H]4CN(CCO)C[C@@H]34)cc2)on1")
-0.91
>>> value_measured("C[C@H](O)c1nccn1Cc1cc(-c2ccc(C#C[C@@H]3[C@H]4CN(CC(=O)O)C[C@@H]34)cc2)on1")
-0.66
>>> value_measured("C[C@H](O)c1nccn1Cc1cc(-c2ccc(C#C[C@@H]3[C@H]4CN(CCCC(=O)O)C[C@@H]34)cc2)no1")
-0.71
>>> value_measured("C[C@H](O)c1nccn1Cc1cc(-c2ccc(C#CC(C)(C)C)cc2)on1")
-1.33

// for each molecule in input: emit log10(IC50)
1. C[C@H](O)c1nccn1Cc1cc(-c2ccc(C#C[C@@H]3[C@H]4CN(CCCCCC(=O)O)C[C@@H]34)cc2)on1
2. C[C@H](O)c1nccn1[C@H](CN)c1cc(-c2ccc(C#CC3(C)COC3)cc2)on1

[-0.39, -1.10]
